Assay: In vitro stability in rat liver homogenate
Type: in vitro ADME
Conditions: tissue homogenate
Starred links: 1 amine or outer side, 2 acyl side, 3 side chain; linkers in the order of their positions; H or OH if unused. Non-standard residues stand in square brackets, D forms with d. Residues, ends and D or L forms follow the SMILES beside them. *: point of attachment. Phe(4-Cl) = N[C@@H](Cc1ccc(Cl)cc1)C(=O)O; γGlu = O=C(O)[C@H](CCC(=O)[*:2])N[*:1]; NMeR = CN[C@@H](CCCNC(=N)N)C(=O)O; Tridecanoyl = CCCCCCCCCCCCC(=O)*; Nle = CCCC[C@H](N)C(=O)O; AEEA = NCCOCCOCC(=O)O
METRIC: remaining at 4 h, 5 μM

MOLECULE | MEASURED RESULT
CCCCCCCCCCCCC(=O)N[C@@H](CCC(=O)NCCOCCOCC(=O)NCCOCCOCC(=O)N[C@@H](CCC(N)=O)C(=O)N[C@@H](CCCNC(=N)N)C(=O)N1CCC[C@H]1C(=O)N(C)[C@@H](CCCNC(=N)N)C(=O)N[C@@H](CC(C)C)C(=O)N[C@@H](CO)C(=O)N[C@@H](Cc1c[nH]cn1)C(=O)N[C@@H](CCCCN)C(=O)NCC(=O)N1CCC[C@H]1C(=O)N[C@@H](CCCC)C(=O)N[C@@H](Cc1ccc(Cl)cc1)C(=O)O)C(=O)O [compound 402] ({Tridecanoyl-γGlu-AEEA-AEEA}-QRP[NMeR]LSHKGP[Nle][Phe(4-Cl)]-OH) | < 1%

* * *

Experiment: In vitro stability in rat plasma
Assay type: in vitro ADME
METRIC: remaining at 4 h, 5 μM

STRUCTURE | MEASURED RESULT
CCCCCCCCCCCCC(=O)N[C@@H](CCC(=O)NCCOCCOCC(=O)NCCOCCOCC(=O)N[C@@H](CCC(N)=O)C(=O)N(C)[C@@H](CCCCNC(=N)N)C(=O)N1CCC[C@H]1C(=O)N(C)[C@@H](CCCNC(=N)N)C(=O)N[C@@](C)(CC(C)C)C(=O)N[C@@H](CO)C(=O)N[C@@H](Cc1c[nH]cn1)C(=O)N[C@@H](CCCCN)C(=O)NCC(=O)N1CCC[C@H]1C(=O)N[C@@H](CCCC)C(=O)N1CCC[C@H]1C(=O)N[C@@H](Cc1ccc(Cl)cc1)C(=O)O)C(=O)O | 79%
CCCCCCCCCCCCC(=O)N[C@@H](CCC(=O)NCCOCCOCC(=O)NCCOCCOCC(=O)N[C@@H](CCC(N)=O)C(=O)N[C@@H](CCCNC(=N)N)C(=O)N1CCC[C@H]1C(=O)N(C)[C@@H](CCCNC(=N)N)C(=O)N[C@@](C)(CC(C)C)C(=O)N[C@@H](CO)C(=O)N[C@@H](Cc1c[nH]cn1)C(=O)N[C@@H](CCCCN)C(=O)NCC(=O)N1CCC[C@@]1(C)C(=O)N[C@@H](CCCC)C(=O)N1CCC[C@H]1C(=O)N[C@@H](Cc1ccc(Cl)cc1)C(=O)O)C(=O)O | 73%

* * *

Molecular target: rat APJ receptor (Rattus norvegicus)
Construct: expressed in transfected cells
Sequence (Q9JHG3 whole entry): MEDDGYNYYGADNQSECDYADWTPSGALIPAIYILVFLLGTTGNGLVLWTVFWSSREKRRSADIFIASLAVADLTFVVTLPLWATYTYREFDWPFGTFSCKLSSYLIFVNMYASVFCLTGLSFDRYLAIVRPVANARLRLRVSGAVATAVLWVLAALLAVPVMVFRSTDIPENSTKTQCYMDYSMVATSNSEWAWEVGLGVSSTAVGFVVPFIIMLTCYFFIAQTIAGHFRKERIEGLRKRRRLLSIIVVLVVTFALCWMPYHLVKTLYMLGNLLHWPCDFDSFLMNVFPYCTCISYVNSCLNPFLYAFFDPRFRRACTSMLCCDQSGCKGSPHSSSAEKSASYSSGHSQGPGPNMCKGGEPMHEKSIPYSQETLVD
Experiment: [35S] GTPγS assay, rat APJ receptor
Type: biochemical
Details: rat APJ receptor, read-out: EC50 Rat APJ Receptor

COMPOUND | EC50 [nM]
CCCC[C@H](NC(=O)[C@@H]1CCCN1C(=O)CNC(=O)[C@H](CCCCN)NC(=O)[C@H](Cc1c[nH]cn1)NC(=O)[C@H](CO)NC(=O)[C@](C)(CC(C)C)NC(=O)[C@H](CCCCNC(=N)N)NC(=O)[C@@H]1CCCN1C(=O)[C@@H](CCCNC(=N)N)NC(=O)[C@H](CCC(N)=O)NC(=O)COCCOCCNC(=O)COCCOCCNC(=O)CC[C@H](NC(=O)CCCCC(=O)O)C(=O)O)C(=O)N1CCC[C@H]1C(=O)N[C@@H](Cc1ccc(Cl)cc1)C(=O)O [compound 515] | 5.94
